Reference source: ChEMBL document CHEMBL3886751

# experimental.system: N-acylethanolamine-hydrolyzing acid amidase (Homo sapiens, UniProt Q02083)
# Sequence (Q02083 whole entry): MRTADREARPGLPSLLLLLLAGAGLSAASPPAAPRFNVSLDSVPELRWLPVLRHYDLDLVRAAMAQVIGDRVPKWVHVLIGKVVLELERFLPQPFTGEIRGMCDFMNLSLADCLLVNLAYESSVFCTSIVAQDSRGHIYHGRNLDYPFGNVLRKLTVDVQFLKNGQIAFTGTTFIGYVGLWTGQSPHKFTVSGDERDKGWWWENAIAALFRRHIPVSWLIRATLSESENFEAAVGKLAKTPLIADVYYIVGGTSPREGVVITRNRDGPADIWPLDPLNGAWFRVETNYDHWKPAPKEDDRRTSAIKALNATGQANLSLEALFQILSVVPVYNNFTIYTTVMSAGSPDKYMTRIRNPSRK
# assay.method.text: UPLC/MS Assay: NAAA protein preparation (10 ug) was pre-incubated with various concentrations of test compound or vehicle control in 100 mM NaH2PO4, 100 mM Tri Sodium Citrate Dehydrate, 0.1% Triton-X 100, 3 mM DTT, pH 4.5 for 30 min at 37° C. Duplicate samples were then incubated with 50 uM C17:1 10-cis-heptadecenoylethanolamide (Avanti Polar Lipids, Alabaster, Ala. USA) at 37° C. for 30 minutes. The reaction was terminated by the addition of 0.2 mL of cold methanol containing 1 nmol of heptadecanoic acid (NuChek Prep, Elysian, Minn. USA) as internal standard. Samples were then analyzed by UPLC/MS. Heptadecenoic and heptadecanoic acids were eluted on an Acquity UPLC BEH C18 column (50 mm length, 2.1 mm i.d., 1.7 um pore size, Waters) isocratically at 0.5 mL/min for 1.5 min with a solvent mixture of 95% methanol and 5% water, both containing 0.25% Acetic Acid and 5 mM Ammonium Acetate. The column temperature was 40° C. Electrospray ionization was in the negative mode, capillary voltage was 0.5 kV, cone voltage was […], desolvation temperature was 500° C. N2 was used as drying gas at a flow rate of 1000 L/hour and a temperature of 500° C. The [M-H]- ion was monitored in the selected-ion monitoring mode (m/z values: heptadecenoic acid 267.37, heptadecanoic acid 269.37). Calibration curves were generated using commercial heptadecenoic acid (NuCheck Prep). Inhibition of NAAA activity was calculated as reduction of heptadecenoic acid in the samples compared to vehicle controls. IC50 values were calculated by non-linear regression analysis of log [concentration]/inhibition curves using GraphPad Prism 5 (GraphPad Software Inc., CA-USA) applying a standard slope curve fitting.
property.measured: IC50 (nM)
Write the value in nM as a bare number.

Task: Form field: reported IC50 of CC(OC(=O)N[C@H]1C(=O)O[C@H]1C)c1ccc(-c2ccccc2)cc1 (mixture of isomers)
Output: 10
